- Tested on: Rattus norvegicus
- procedure_details: Inhibitory activity against AII-Induced Pressor response at 3 mg/Kg at 3 hour
- Type: functional
property_name: inhibition in vivo at 3 mg/kg (%)
Answers are plain numbers, in %.

Solved cases below.
| compound | readout_unit | inhibition in vivo at 3 mg/kg |
| --- | --- | --- |
| CCCCc1nc(Cl)c(C(=O)O)n1Cc1ccc(-c2ccccc2-c2nn[nH]n2)cc1 [CARBOXYLIC ACID METABOLITE] | % | 81 |
| CCCc1nc(C(C)(C)O)c(C(=O)OCC)n1Cc1ccc(-c2ccccc2C(=O)O)cc1 | % | 28 |
| CCCc1nc(C(C)(C)O)c(C(=O)O)n1Cc1ccc(-c2ccccc2C(=O)O)cc1 | % | 67 |

As a next step, examine the compound that follows.
Can you look up inhibition in vivo at 3 mg/kg on Rattus norvegicus for CCCCc1nc(Cl)c(CO)n1Cc1ccc(-c2ccccc2-c2nnn[nH]2)cc1 [LOSARTAN] ?
35

====

Please go through the items and note down their inhibition in vivo at 10 mg/kg.
- System: Rattus norvegicus
- procedure_details: Inhibitory activity against AII-Induced Pressor response at 10 mg/Kg at 6 hour
- Assay type: functional
Numbers only, in %.

Could you tell me inhibition in vivo at 10 mg/kg for each of these molecules? They are listed below.
1. CCCCc1nc(Cl)c(C(=O)O)n1Cc1ccc(-c2ccccc2-c2nn[nH]n2)cc1 [CARBOXYLIC ACID METABOLITE]
2. CCCc1nc(C(C)(C)O)c(C(=O)OCC)n1Cc1ccc(-c2ccccc2C(=O)O)cc1
3. CCCc1nc(C(C)(C)O)c(C(=O)O)n1Cc1ccc(-c2ccccc2C(=O)O)cc1

[89, 75, 56]

Fill in: inhibition in vivo at 10 mg/kg of "CCCCc1nc(Cl)c(CO)n1Cc1ccc(-c2ccccc2-c2nnn[nH]2)cc1" is ___
85

====

- System: Rattus norvegicus
- procedure_details: Inhibitory activity against AII-Induced Pressor response at 1 mg/kg at 1 hr
- Type: functional
Consider the following compounds; for each one, report its inhibition in vivo at 1 mg/kg.
Answers are plain numbers, in %.

Report inhibition in vivo at 1 mg/kg for every entry below.
1. CCCc1nc(C(C)(C)O)c(C(=O)O)n1Cc1ccc(-c2ccccc2C(=O)OCOC(=O)C(C)(C)C)cc1
2. CCCc1nc(C(C)(C)O)c(C(=O)OCc2oc(=O)oc2C)n1Cc1ccc(-c2ccccc2C(=O)O)cc1
3. CCCc1nc(C(C)(C)O)c(C(=O)O)n1Cc1ccc(-c2ccccc2C(=O)O)cc1
4. CCCc1nc(C(C)(C)O)c(C(=O)OC2OC(=O)c3ccccc32)n1Cc1ccc(-c2ccccc2C(=O)O)cc1 (stereo unspecified)
5. CCCc1nc(C(C)(C)O)c(C(=O)OCOC(=O)C(C)(C)C)n1Cc1ccc(-c2ccccc2C(=O)O)cc1
6. CCCc1nc(C(C)(C)O)c(C(=O)OCOC(=O)OC(C)C)n1Cc1ccc(-c2ccccc2C(=O)O)cc1

1: 20; 2: 72; 3: 50; 4: 73; 5: 52; 6: 71

====

- target_system: Angiotensin II receptor (Rattus norvegicus) (UniProt P29089+P25095+P35351)
- procedure_details: In vivo inhibitory activity against angiotensin II induced pressor response in anesthetized normotensive rats
- Assay type: functional, organism-based
property_name: ID50 (mg/kg)
Give bare numbers, in mg/kg.

Reference set (5 entries):
| molecule | target_system | ID50 / mg/kg |
| --- | --- | --- |
| CCCc1nc(C(C)(C)O)c(C(=O)O)n1Cc1ccc(-c2ccccc2-c2nnn[nH]2)cc1 | Angiotensin II receptor (Rattus norvegicus) (UniProt P29089+P25095+P35351) | 0.0079 |
| C=C(C)c1nc(CCC)n(Cc2ccc(-c3ccccc3C(=O)O)cc2)c1C(=O)O | Angiotensin II receptor (Rattus norvegicus) (UniProt P29089+P25095+P35351) | 0.37 |
| CCCc1ncc(C(=O)O)n1Cc1ccc(-c2ccccc2-c2nn[nH]n2)cc1 | Angiotensin II receptor (Rattus norvegicus) (UniProt P29089+P25095+P35351) | 0.018 |
| CCCCc1nc(C(C)(C)O)c(C(=O)O)n1Cc1ccc(-c2ccccc2C(=O)O)cc1 | Angiotensin II receptor (Rattus norvegicus) (UniProt P29089+P25095+P35351) | 0.066 |
| CCCc1nc(C(C)C)c(C(=O)O)n1Cc1ccc(-c2ccccc2C(=O)O)cc1 | Angiotensin II receptor (Rattus norvegicus) (UniProt P29089+P25095+P35351) | 0.14 |

// each listed molecule needs a value for ID50
1. CCCc1nc(C(=O)O)cn1Cc1ccc(-c2ccccc2C(=O)O)cc1
2. CCCCc1nc(C(C)(C)O)c(C(=O)O)n1Cc1ccc(-c2ccccc2-c2nn[nH]n2)cc1
3. CCCc1nc(CO)c(C(=O)O)n1Cc1ccc(-c2ccccc2-c2nn[nH]n2)cc1
4. CCCc1nc(C(C)O)c(C(=O)O)n1Cc1ccc(-c2ccccc2-c2nn[nH]n2)cc1 (centres undefined)
5. CCCc1nc(C(=O)O)c(C(=O)O)n1Cc1ccc(-c2ccccc2-c2nn[nH]n2)cc1
6. CCCc1nc(C)c(C(=O)O)n1Cc1ccc(-c2ccccc2-c2nn[nH]n2)cc1
7. CCCc1nc(C(C)(C)O)c(C(=O)OCC)n1Cc1ccc(-c2ccccc2-c2nn[nH]n2)cc1
8. CCCc1nc(C(O)(CC)CC)c(C(=O)O)n1Cc1ccc(-c2ccccc2C(=O)O)cc1

8.2
0.017
0.0062
0.0063
0.031
0.028
0.32
0.11

Dear colleague, could you send me ID50 for each of the items below? Thanks.
1. CCCCc1nc(Cl)c(CO)n1Cc1ccc(-c2ccccc2-c2nnn[nH]2)cc1
2. CCc1nc(C(C)(C)O)c(C(=O)O)n1Cc1ccc(-c2ccccc2C(=O)O)cc1
3. CCCc1nc(C(=O)O)c(C(=O)O)n1Cc1ccc(-c2ccccc2C(=O)O)cc1
4. CCCc1ncc(C(=O)O)n1Cc1ccc(-c2ccccc2C(=O)O)cc1
5. CCCc1nc(CO)c(C(=O)OCC)n1Cc1ccc(-c2ccccc2C(=O)O)cc1
6. CCCc1nc(CC)c(C(=O)O)n1Cc1ccc(-c2ccccc2C(=O)O)cc1

0.3
0.3
0.67
0.22
1.5
0.27

====

- System: Rattus norvegicus
- procedure_details: Inhibitory activity against AII-Induced Pressor response at 1 mg/kg at 3 hour
- Assay type: functional
- applied_conditions: Rattus norvegicus, 3 h
property_name: inhibition in vivo at 1 mg/kg (%)
Give bare numbers, in %.

| molecule | inhibition in vivo at 1 mg/kg [%] |
| --- | --- |
| CCCc1nc(C(C)(C)O)c(C(=O)O)n1Cc1ccc(-c2ccccc2C(=O)O)cc1 | 42 |

// for each molecule in input: emit inhibition in vivo at 1 mg/kg
1. CCCc1nc(C(C)(C)O)c(C(=O)OCc2oc(=O)oc2C)n1Cc1ccc(-c2ccccc2C(=O)O)cc1
2. CCCc1nc(C(C)(C)O)c(C(=O)OCOC(=O)OC(C)C)n1Cc1ccc(-c2ccccc2C(=O)O)cc1
3. CCCc1nc(C(C)(C)O)c(C(=O)OC2OC(=O)c3ccccc32)n1Cc1ccc(-c2ccccc2C(=O)O)cc1 (stereo not given)
4. CCCc1nc(C(C)(C)O)c(C(=O)O)n1Cc1ccc(-c2ccccc2C(=O)OCOC(=O)C(C)(C)C)cc1

1: 70; 2: 71; 3: 77; 4: 35

====

For each of the compounds below, state its IC50.
- target_system: Type-1 angiotensin II receptor (Bos taurus, UniProt P25104)
- Sequence (P25104 whole entry): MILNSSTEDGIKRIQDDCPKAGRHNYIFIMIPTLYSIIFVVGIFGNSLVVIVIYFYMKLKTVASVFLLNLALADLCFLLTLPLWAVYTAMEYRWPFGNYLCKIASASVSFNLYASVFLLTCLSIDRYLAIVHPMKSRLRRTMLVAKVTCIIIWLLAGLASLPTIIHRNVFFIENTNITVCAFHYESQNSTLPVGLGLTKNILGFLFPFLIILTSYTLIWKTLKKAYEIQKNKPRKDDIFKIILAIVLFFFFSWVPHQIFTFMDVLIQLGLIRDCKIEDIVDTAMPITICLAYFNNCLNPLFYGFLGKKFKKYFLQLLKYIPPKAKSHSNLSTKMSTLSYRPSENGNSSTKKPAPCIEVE
Answers are plain numbers, in nM.

| record_smiles | readout_number |
| --- | --- |
| CCc1nc(C(C)(C)O)c(C(=O)O)n1Cc1ccc(-c2ccccc2C(=O)O)cc1 | 37 |
| CCCc1nc(CC)c(C(=O)O)n1Cc1ccc(-c2ccccc2-c2nnn[nH]2)cc1 | 12 |

Could you now consider this next compound?
# get_value(readout='IC50', item= "CCCc1ncc(C(=O)O)n1Cc1ccc(-c2ccccc2C(=O)O)cc1" )
60
